Assay: Single dose (oral, intraperitoneal, subcutaneous, intravenous) and repeat dose toxicity studies
Details: monkey, in vivo, iv, LD50, Monkey; intravenous infusion
value_kind: LD50

Given the entry CC(C)Cn1cnc2c(N)nc3ccccc3c21 [imiquimod] , report its measured LD50.
~8 mg/kg

====

Assay: Open label pharmacokinetic study GW01-0804: serum pharmacokinetics
Details: both, human, in vivo, AUC0-24, Mean, serum; Day 1
value_kind: AUC(0-t) (ng·h/mL)
One number for each entry, in ng·h/mL.

Given the entry CC(C)Cn1cnc2c(N)nc3ccccc3c21 [Imiquimod (R-837)] , report its measured AUC(0-t).
3.75

====

Assay: Single dose (oral, intraperitoneal, subcutaneous, intravenous) and repeat dose toxicity studies
Conditions: rat, in vivo, po, LD50, Rat
value_kind: LD50
Please provide the amount together with its unit, number first.

Given the entry CC(C)Cn1cnc2c(N)nc3ccccc3c21 [imiquimod] , report its measured LD50.
1660 mg/kg

All values here come from patent US10238645B2.
